src = paper PMC9774391

- target of assay: MAO-B (Homo sapiens, UniProt P27338)
- Sequence (P27338 whole entry): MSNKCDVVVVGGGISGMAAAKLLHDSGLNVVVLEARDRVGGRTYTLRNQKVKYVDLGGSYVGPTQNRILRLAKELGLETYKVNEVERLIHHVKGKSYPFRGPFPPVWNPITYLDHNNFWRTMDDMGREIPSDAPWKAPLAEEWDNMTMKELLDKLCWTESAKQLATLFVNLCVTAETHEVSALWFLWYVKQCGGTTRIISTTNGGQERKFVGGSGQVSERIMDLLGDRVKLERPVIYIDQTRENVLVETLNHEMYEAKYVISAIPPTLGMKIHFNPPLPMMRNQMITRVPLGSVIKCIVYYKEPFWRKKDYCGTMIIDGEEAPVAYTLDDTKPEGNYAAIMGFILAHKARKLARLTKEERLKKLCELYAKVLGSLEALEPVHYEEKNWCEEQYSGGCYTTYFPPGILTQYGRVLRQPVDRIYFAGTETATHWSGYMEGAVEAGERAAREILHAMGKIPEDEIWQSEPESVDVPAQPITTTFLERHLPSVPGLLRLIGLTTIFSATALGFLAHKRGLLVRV
- experimental details: In vitro MAO-B inhibition assay (fluorometric)
- Type: biochemical
- condition parameters: 10^–6 M
Below, each of the compounds is paired with its reported inhibition at 1 µM value.
All answers are understood in %, so give the number only.

# count of solved cases: 5
| smiles str | reported property | observed measurement |
| --- | --- | --- |
| CCN(CC)CCN(CC)CC(=O)Nc1ccc(/C=C2\Cc3ccc(OC)cc3C2=O)cc1 | inhibition at 1 µM | 65.4 |
| C#CCN(C)CC(=O)Nc1ccc(/C=C2\Cc3cc(OC)ccc3C2=O)cc1 | inhibition at 1 µM | 75.9 |
| CCN(CC)CCN(CC)CC(=O)Nc1ccc(/C=C2\Cc3cc(OC)ccc3C2=O)cc1 | inhibition at 1 µM | 65.2 |
| CCCN(C)CC(=O)Nc1ccc(/C=C2\Cc3ccc(OC)cc3C2=O)cc1 | inhibition at 1 µM | 74.2 |
| COc1cc2c(cc1OC)C(=O)/C(=C/c1ccc(NC(=O)CN(C)CCCN(C)C)cc1)C2 | inhibition at 1 µM | 78.6 |

Would you mind telling me what inhibition at 1 µM value was observed for COc1ccc2c(c1)C(=O)/C(=C/c1ccc(NC(=O)CN(C)CCCN(C)C)cc1)C2 ? 78.2

Consider the compound COc1ccc2c(c1)C/C(=C\c1ccc(NC(=O)CN(C)CCCN(C)C)cc1)C2=O and give its measured inhibition at 1 µM. 78.3

# get_value(readout='inhibition at 1 µM', item= CCCN(C)CC(=O)Nc1ccc(/C=C2\Cc3cc(OC)c(OC)cc3C2=O)cc1 ) 74.6

Would you kindly share the measured inhibition at 1 µM for C#CCN(C)CC(=O)Nc1ccc(/C=C2\Cc3ccc(OC)cc3C2=O)cc1 ? 72.7

Can you share its inhibition at 1 µM? I mean this compound: CCCN(C)CC(=O)Nc1ccc(/C=C2\Cc3cc(OC)ccc3C2=O)cc1 75.2

###

- experimental details: Cytotoxicity test (MTT)
- Type: cell-based
- condition parameters: NIH/3T3 mouse embryonic fibroblast cells (ATCC CRL-1658), NIH/3T3 mouse fibroblast healthy cell line
reported property: IC50
Answer shape: numeric part, then the unit.

| smiles str | IC50 |
| --- | --- |
| C#CCN(C)CC(=O)Nc1ccc(/C=C2\Cc3cc(OC)ccc3C2=O)cc1 | 26 µM |
| COc1cc2c(cc1OC)C(=O)/C(=C/c1ccc(NC(=O)CN3CCN(CCCO)CC3)cc1)C2 | 39.5 µM |
| COc1ccc2c(c1)C(=O)/C(=C/c1ccc(NC(=O)CN(C)CCCN(C)C)cc1)C2 | 6.81 µM |

Could you share which IC50 value was measured for COc1ccc2c(c1)C(=O)/C(=C/c1ccc(NC(=O)CN3CCN(CCCO)CC3)cc1)C2 ? 20 µM

Look at this compound and give its reported IC50. COc1ccc2c(c1)C/C(=C\c1ccc(NC(=O)CN(C)CCN(C)C)cc1)C2=O 75.5 µM

###

- target of assay: AChE (Homo sapiens)
- Sequence (P22303 32-614): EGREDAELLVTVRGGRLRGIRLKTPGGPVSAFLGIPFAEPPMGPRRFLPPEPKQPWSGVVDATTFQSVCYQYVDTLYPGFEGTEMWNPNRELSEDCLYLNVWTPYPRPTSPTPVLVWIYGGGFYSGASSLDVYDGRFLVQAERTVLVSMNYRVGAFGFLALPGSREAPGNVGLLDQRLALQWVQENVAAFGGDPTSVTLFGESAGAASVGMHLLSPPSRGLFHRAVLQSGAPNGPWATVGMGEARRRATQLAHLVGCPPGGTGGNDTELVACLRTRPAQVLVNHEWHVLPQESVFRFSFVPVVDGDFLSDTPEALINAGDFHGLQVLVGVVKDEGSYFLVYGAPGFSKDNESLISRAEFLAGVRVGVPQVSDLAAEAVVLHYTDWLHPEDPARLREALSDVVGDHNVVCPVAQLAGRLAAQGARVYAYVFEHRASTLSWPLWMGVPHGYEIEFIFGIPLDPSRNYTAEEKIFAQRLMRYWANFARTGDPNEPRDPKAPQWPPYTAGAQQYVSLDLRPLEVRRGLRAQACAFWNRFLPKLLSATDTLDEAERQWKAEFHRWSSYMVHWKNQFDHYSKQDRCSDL
- experimental details: biochemical
- condition parameters: 10^–3 M
- Description: According to the modified Ellman approach outlined in our team’s earlier work, the AChE and BChE inhibitory activities of the obtained compounds were evaluated.[18]−[21]
Values of inhibition at 1000 µM greater than or equal to 80% map to fulfilled; values below map to not fulfilled.

Example entries begin here.
| compound | discrete label |
| --- | --- |
| COc1cc2c(cc1OC)C(=O)/C(=C/c1ccc(NC(=O)CN(C)CCCN(C)C)cc1)C2 [D39] | fulfilled |
| C#CCN1CCN(CC(=O)Nc2ccc(/C=C3\Cc4cc(OC)c(OC)cc4C3=O)cc2)CC1 [D12] | fulfilled |
| COc1ccc2c(c1)C/C(=C\c1ccc(NC(=O)CN(C)CCN(C)C)cc1)C2=O [D34] | fulfilled |

Check this compound for inhibition at 1000 µM at or above 80%: COc1cc2c(cc1OC)C(=O)/C(=C/c1ccc(NC(=O)CN3CCN(CCCO)CC3)cc1)C2 [D21] fulfilled

# check: inhibition at 1000 µM of COc1cc2c(cc1OC)C(=O)/C(=C/c1ccc(NC(=O)CN3CCN(C)CC3)cc1)C2 [D3] is greater than or equal to 80% fulfilled
